biological target: Phosphomannomutase 2 (Homo sapiens); assay: Counter screen SAR assay for PMM2 inhibitors via a fluorescence intensity assay. [Related pubchem assays (depositor defined):AID1545, AID1574]
Sequence (O15305 whole entry): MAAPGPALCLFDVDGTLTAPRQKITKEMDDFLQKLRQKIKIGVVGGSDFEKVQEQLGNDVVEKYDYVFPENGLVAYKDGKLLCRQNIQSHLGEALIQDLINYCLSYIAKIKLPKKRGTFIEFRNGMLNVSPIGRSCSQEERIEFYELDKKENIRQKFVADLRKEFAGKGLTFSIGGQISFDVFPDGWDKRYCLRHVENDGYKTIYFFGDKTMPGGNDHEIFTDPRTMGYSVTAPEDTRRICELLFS
Activity calls are given as the source filed them.
Respond with a class label; see active, inactive

(Q) Given Cc1nnc(/N=c2\ssnc2Cl)o1 , state the outcome it received in this test.
(A) inactive

(Q) Given Cc1cccc(-n2sc3ccccc3c2=O)c1 , state the outcome it received in this test.
(A) active

(Q) Given Cc1cccc(-n2sc3cc(F)ccc3c2=O)c1C , state the outcome it received in this test.
(A) active

(Q) Given COc1cc(N=c2ssnc2Cl)cc(OC)c1 , state the outcome it received in this test.
(A) inactive

----------
assay: Luminescence Cell-Based Dose Retest to Confirm Inhibitors of Cancer Stem Cells. [Related pubchem assays (depositor defined):AID2717, AID2721]; type: functional; conditions: Homo sapiens
Calls of active or inactive are those of the source.
I'd appreciate it if you could supply AC50 values for the items below.

(Q) For COc1ccc(-c2sc3ccccc3c2/C=C/c2ccc(N)cc2)cc1 , what is its reported AC50?
(A) 3.98 µM (active)

(Q) For COc1cccc(S(=O)(=O)NCc2ccc(C(=O)Nc3ccc(Cl)cc3)cc2)c1 , what is its reported AC50?
(A) 35 µM (active)

(Q) For Cc1ccccc1N1CCN(C(=O)c2ccc(Oc3ccc(C(F)(F)F)cn3)cc2)CC1 , what is its reported AC50?
(A) 3.43 µM (active)

----------
I'd appreciate it if you could supply EC50 values for the items below.
Target: Zinc finger protein mex-5 (Caenorhabditis elegans, UniProt Q9XUB2)
Sequence (Q9XUB2 whole entry): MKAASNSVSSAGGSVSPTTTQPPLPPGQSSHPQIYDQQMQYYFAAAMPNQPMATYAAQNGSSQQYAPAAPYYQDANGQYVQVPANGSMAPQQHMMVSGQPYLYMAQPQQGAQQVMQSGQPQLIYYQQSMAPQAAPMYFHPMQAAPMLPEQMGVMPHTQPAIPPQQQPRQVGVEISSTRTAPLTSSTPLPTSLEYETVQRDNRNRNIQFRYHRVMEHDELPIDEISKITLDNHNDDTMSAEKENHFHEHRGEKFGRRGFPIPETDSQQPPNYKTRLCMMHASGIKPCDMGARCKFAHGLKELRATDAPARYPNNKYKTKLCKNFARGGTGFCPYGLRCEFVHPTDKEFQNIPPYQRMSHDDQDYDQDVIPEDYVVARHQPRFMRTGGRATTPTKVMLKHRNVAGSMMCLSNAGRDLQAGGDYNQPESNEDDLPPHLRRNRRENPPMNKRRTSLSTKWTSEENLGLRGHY
Assay: MEX-5/TCR-2 RNA interaction inhibitors, dose response, biochemical, C. elegans, fluorescence polarization (AID 1960)
The source made the active and inactive calls.

(Q) Param readout= EC50; system= Zinc finger protein mex-5 (Caenorhabditis elegans, UniProt Q9XUB2); entry= O=C(NCCN1CCOCC1)c1cccn2c(=O)c3c4c(sc3nc12)CCCC4 ; returns value.
(A) > 300 µM (not active)

(Q) Param readout= EC50; system= Zinc finger protein mex-5 (Caenorhabditis elegans, UniProt Q9XUB2); entry= CC(=O)Nc1ccc(/C=C/C(=O)c2ccc3c(c2)OCCO3)cc1 ; returns value.
(A) > 300 µM (not active)

(Q) Param readout= EC50; system= Zinc finger protein mex-5 (Caenorhabditis elegans, UniProt Q9XUB2); entry= O=c1cc(-c2ccccc2Cl)oc2c(NS(=O)(=O)c3cc(Cl)cc(Cl)c3O)ccc(O)c12 ; returns value.
(A) 4.54 µM (inconclusive)

(Q) Param readout= EC50; system= Zinc finger protein mex-5 (Caenorhabditis elegans, UniProt Q9XUB2); entry= O=c1[nH][nH]c2cc(=O)n(-c3ccc(Cl)cc3)nc12 ; returns value.
(A) 4.09 µM (active)

(Q) Param readout= EC50; system= Zinc finger protein mex-5 (Caenorhabditis elegans, UniProt Q9XUB2); entry= N#CC(C(=O)NCc1ccccc1)c1nc2ccccc2nc1N1CCCC1 (stereo not drawn) ; returns value.
(A) > 300 µM (inconclusive)

(Q) Param readout= EC50; system= Zinc finger protein mex-5 (Caenorhabditis elegans, UniProt Q9XUB2); entry= COc1ccc(C2C(C#N)=C(N)OC3=C2C(=O)CC(C)(C)C3)cc1Cn1cc([N+](=O)[O-])cn1 (stereo not drawn) ; returns value.
(A) > 300 µM (not active)

(Q) Param readout= EC50; system= Zinc finger protein mex-5 (Caenorhabditis elegans, UniProt Q9XUB2); entry= O=C(NCc1ccccn1)C1Nc2ccc(C(F)(F)F)cc2C2C=CCC12 (stereo not drawn) ; returns value.
(A) > 300 µM (not active)

(Q) Param readout= EC50; system= Zinc finger protein mex-5 (Caenorhabditis elegans, UniProt Q9XUB2); entry= COc1ccc(C2C(C#N)=C(N)OC3=C2C(=O)CC(C)(C)C3)cc1Cn1nc(C)c([N+](=O)[O-])c1C (stereo not drawn) ; returns value.
(A) > 300 µM (not active)

(Q) Param readout= EC50; system= Zinc finger protein mex-5 (Caenorhabditis elegans, UniProt Q9XUB2); entry= C=CCOc1ccc(C2C(C(=O)c3cccs3)=C(O)C(=O)N2c2nnc(C)s2)cc1 (stereo not drawn) ; returns value.
(A) 3.06 µM (active)

(Q) Param readout= EC50; system= Zinc finger protein mex-5 (Caenorhabditis elegans, UniProt Q9XUB2); entry= NS(=O)(=O)c1ccc(Nc2nc(-c3ccc(O)cc3O)cs2)cc1 ; returns value.
(A) 9.7 µM (active)

(Q) Param readout= EC50; system= Zinc finger protein mex-5 (Caenorhabditis elegans, UniProt Q9XUB2); entry= CC1=CC(C#N)(C#N)C(C#N)(C#N)C(c2ccccc2)N1 (stereo not drawn) ; returns value.
(A) 2.46 µM (active)

(Q) Param readout= EC50; system= Zinc finger protein mex-5 (Caenorhabditis elegans, UniProt Q9XUB2); entry= N=C1/C(=C\c2ccc(SCc3ccco3)o2)C(=O)N=C2SC=NN12 ; returns value.
(A) > 300 µM (not active)

(Q) Param readout= EC50; system= Zinc finger protein mex-5 (Caenorhabditis elegans, UniProt Q9XUB2); entry= C=CCN1C(=O)/C(=C2/Sc3ccccc3N2CC)SC1=S ; returns value.
(A) 9.69 µM (active)

----------
I'd appreciate it if you could supply EC50 values for the items below.
biological target: Protein RecA (Mycobacterium tuberculosis); assay: Fluorescence Cell-Free Homogeneous Dose Retest to Identify Inhibitors of RecA-Intein Splicing Activity. [Related pubchem assays (depositor defined):AID2097, AID2223, AID489010, AID492950]; type: functional
The source made the active and inactive calls.

(Q) For CC(=O)N1CC2(c3ccccc3)CN(C(C)=O)CC(c3ccccc3)(C1)C2=O , what is its reported EC50?
(A) > 380 µM (inactive)

(Q) For O=[N+]([O-])c1cc(O)c2ncccc2c1 , what is its reported EC50?
(A) 4.6 µM (active)

(Q) For Cc1cccc(NC2=C(NC(=O)c3ccccc3)C(=O)c3ccccc3C2=O)c1 , what is its reported EC50?
(A) 1.71 µM (active)

(Q) For Cc1[nH][nH]c(=O)c1C(c1c(C)[nH][nH]c1=O)c1cn(Cc2ccccc2Cl)c2ccccc12 , what is its reported EC50?
(A) 0.299 µM (active)

(Q) For CCCc1n[nH]c2c1C(c1ccc(O)cc1OCC)C(C#N)=C(N)O2 (stereo not given) , what is its reported EC50?
(A) 4.6 µM (active)

----------
molecular target: Cytochrome P450 1A2 (Homo sapiens, UniProt P05177);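 further: PubChem cytochrome P450 panel assay, CYP1A2 panel member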
Sequence (P05177 whole entry): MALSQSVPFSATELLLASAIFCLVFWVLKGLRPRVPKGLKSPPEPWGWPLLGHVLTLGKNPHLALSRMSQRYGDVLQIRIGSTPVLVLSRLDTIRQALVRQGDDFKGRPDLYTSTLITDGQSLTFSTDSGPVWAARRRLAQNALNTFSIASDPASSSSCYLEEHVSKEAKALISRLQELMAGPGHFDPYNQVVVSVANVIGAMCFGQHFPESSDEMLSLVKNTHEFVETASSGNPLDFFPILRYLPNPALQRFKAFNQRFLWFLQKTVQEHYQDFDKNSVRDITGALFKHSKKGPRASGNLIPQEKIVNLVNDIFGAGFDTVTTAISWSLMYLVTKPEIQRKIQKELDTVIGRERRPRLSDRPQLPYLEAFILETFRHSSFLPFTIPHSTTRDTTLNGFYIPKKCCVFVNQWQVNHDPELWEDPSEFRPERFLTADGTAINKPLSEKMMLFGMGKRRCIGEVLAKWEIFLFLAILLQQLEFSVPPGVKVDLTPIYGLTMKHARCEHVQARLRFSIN
I'd appreciate it if you could supply AC50 values for the items below.

(Q) For Cc1c(NC(=O)/C=C/c2cn(-c3ccccc3)nc2-c2ccc(F)cc2)c(=O)n(-c2ccccc2)n1C , what is its reported AC50?
(A) 28.2 µM (inconclusive)

(Q) For C#CCSc1nnc(-c2sc3ccccc3c2Cl)o1 , what is its reported AC50?
(A) 0.126 µM (inconclusive)

(Q) For Cc1cccc(CN2CCN([C@@H](c3ccccc3)c3ccc(Cl)cc3)CC2)c1 , what is its reported AC50?
(A) 10 µM (inconclusive)

(Q) For COc1ccc2c(c1)c(CC(=O)O)c(C)n2C(=O)c1ccccc1 , what is its reported AC50?
(A) 12.6 µM (inconclusive)

(Q) For CN1CCN(c2ncc3nc(-c4ccc(Cl)cc4)c(=O)n(Cc4ccc(F)cc4)c3n2)CC1 , what is its reported AC50?
(A) 31.6 µM (inconclusive)

(Q) For O=C(O)c1ccccc1-c1ccc(/C=c2\sc3nc4cc(Br)cnc4n3c2=O)o1 , what is its reported AC50?
(A) 17.8 µM (inconclusive)

(Q) For CC1=CC(C)(C)N(C)C(=O)N1c1ccc(Cl)cc1 , what is its reported AC50?
(A) 17.8 µM (inconclusive)

(Q) For Cc1cccc(-n2cnc(C(=O)NC3CCCCCC3)c2)n1 , what is its reported AC50?
(A) 11.2 µM (inconclusive)
